- assay: self-splicing fitness, log relative to wild type (ln ratio); higher = more splicing; Tetrahymena group I intron in knt gene, E. coli kanamycin selection, DiMSum; sequences stand for … in CUCUCU…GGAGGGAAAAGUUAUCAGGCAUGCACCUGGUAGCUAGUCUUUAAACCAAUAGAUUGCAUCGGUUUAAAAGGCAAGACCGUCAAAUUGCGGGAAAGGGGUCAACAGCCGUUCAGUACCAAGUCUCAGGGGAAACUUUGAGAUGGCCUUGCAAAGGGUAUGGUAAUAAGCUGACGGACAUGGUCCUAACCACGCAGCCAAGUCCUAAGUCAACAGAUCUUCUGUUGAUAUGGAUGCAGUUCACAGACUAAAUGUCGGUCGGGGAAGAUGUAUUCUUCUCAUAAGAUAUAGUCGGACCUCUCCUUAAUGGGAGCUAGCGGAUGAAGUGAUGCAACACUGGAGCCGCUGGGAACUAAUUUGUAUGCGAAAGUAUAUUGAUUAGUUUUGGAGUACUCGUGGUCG;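 note: selection with 25 µg/mL kanamycin versus none on LB agar overnight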
- condition: 30 °C
Tick 1 (yes) if self-splicing fitness (ln) is -2 or greater. Tick 0 (no) if self-splicing fitness (ln) is less than -2.

Q: Determine whether this sequence has self-splicing fitness (ln) no lower than -2: "UACCAGCAAUAUUACGGGGG"
A: 0 (no)

====

- assay: self-splicing fitness, log relative to wild type (ln ratio); higher = more splicing; Tetrahymena group I intron in knt gene, E. coli kanamycin selection, DiMSum; sequences stand for … in CUCUCU…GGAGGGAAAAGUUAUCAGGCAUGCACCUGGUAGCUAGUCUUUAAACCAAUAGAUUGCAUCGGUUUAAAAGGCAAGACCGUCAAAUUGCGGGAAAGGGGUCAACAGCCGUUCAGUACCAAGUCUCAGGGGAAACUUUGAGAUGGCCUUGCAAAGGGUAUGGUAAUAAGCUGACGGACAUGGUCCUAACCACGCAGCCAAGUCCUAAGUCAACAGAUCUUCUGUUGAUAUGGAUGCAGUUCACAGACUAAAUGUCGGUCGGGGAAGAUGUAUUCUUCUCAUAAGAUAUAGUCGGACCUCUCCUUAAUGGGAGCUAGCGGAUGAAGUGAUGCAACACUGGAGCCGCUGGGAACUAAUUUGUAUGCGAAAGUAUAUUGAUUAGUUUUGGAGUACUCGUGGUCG
- condition: 30 °C
value type: self-splicing fitness (ln)
Please give only the number in your answer, with no unit.

Use the examples below as a reference point.
UCUAAGCAAUAUUACGACGU
-0.257
GCCUAGCAAUAUUACGAGUA
-1.7
GGGCAGCAAUAUUACGUGUG
-2.34
AAGGAGCAAUAUUACGGGAG
-4.8
AUUCAGCAAUAUUACGAAAG
-1.5
GAUCAGCAAUAUUACGCUAU
-0.967
UUGAAGCAAUAUUACGCGGA
-1.12
GUUAAGCAAUAUUACGUCUU
-0.682
CCCGAGCAAUAUUACGAGCA
-2.24
ACGGAGCAAUAUUACGCGGU
-2.86

In plain terms, "CCGGAGCAAUAUUACGACUU" has a documented self-splicing fitness (ln) of -2.23

// recorded self-splicing fitness (ln) for "GGGGAGCAAUAUUACGCGGU" : -1.99

Data point: "CGCAAGCAAUAUUACGCGAG" ; self-splicing fitness (ln) = -3.98

Input "CAUUAGCAAUAUUACGGGGC" . Output self-splicing fitness (ln): -3.44

// field: self-splicing fitness (ln); key: "GCGCAGCAAUAUUACGACCG" ; value = -1.37

Record "ACUAAGCAAUAUUACGGUUU" , field self-splicing fitness (ln): -2.05
